test system: Staphylococcus aureus; assay: Minimum inhibitory concentration against Staphylococcus aureus MTCC 96; assay type: functional
MEASUREMENT_KIND: MIC (µg/mL)

CC(=O)NC[C@H]1CN(c2ccc(N3CCN(C(=O)/C=C/c4ccc(OS(C)(=O)=O)cc4)CC3)c(F)c2)C(=O)O1	8
C/C(S)=N/C[C@H]1CN(c2ccc(N3CCN(C(=O)/C=C/c4ccc(O)cc4)CC3)c(F)c2)C(=O)O1	0.25
N=C(S)NC[C@H]1CN(c2ccc(N3CCN(C(=O)/C=C/c4ccc5c(c4)OCO5)CC3)c(F)c2)C(=O)O1	1
CC(=O)NC[C@H]1CN(c2ccc(N3CCN(C(=O)/C=C/c4ccc(O)cc4)CC3)c(F)c2)C(=O)O1	2
C/C(S)=N/C[C@H]1CN(c2ccc(N3CCN(C(=O)/C=C/c4ccc5c(c4)OCO5)CC3)c(F)c2)C(=O)O1	1

[1] CC(=O)NC[C@H]1CN(c2ccc(N3CCN(C(=O)/C=C/c4ccc(O)c(O)c4)CC3)c(F)c2)C(=O)O1
[2] CC(=O)NC[C@H]1CN(c2ccc(N3CCN(C(=O)/C=C/c4ccc5c(c4)OCO5)CC3)c(F)c2)C(=O)O1
Which value of MIC is greater, the one for 1 or the one for 2 ? # reply format: chosen label 1

[a] NC(=S)NC[C@H]1CN(c2ccc(N3CCN(C(=O)/C=C/c4ccccc4)CC3)c(F)c2)C(=O)O1
[b] COc1ccc(/C=C/C(=O)N2CCN(c3ccc(N4C[C@H](CNC(C)=O)OC4=O)cc3F)CC2)cc1
Parameter metric = MIC. Return the lower-valued option from a and b . # reply format: chosen label a
(a: 1 µg/mL, b: 4 µg/mL)

----------
tested on: Staphylococcus aureus; assay: Minimum inhibitory concentration against Staphylococcus aureus MTCC 96; format: functional
MEASUREMENT_KIND: MIC (µg/mL)

Here's what some known entries look like.
CC(=O)NC[C@H]1CN(c2ccc(N3CCN(C(=O)/C=C/c4ccc(N)cc4)CC3)c(F)c2)C(=O)O1	1
CC(=O)NC[C@H]1CN(c2ccc(N3CCN(C(=O)/C=C/c4cccc(O)c4)CC3)c(F)c2)C(=O)O1	2
CC(=O)NC[C@H]1CN(c2ccc(N3CCN(C(=O)/C=C/c4ccc(NC(C)=O)cc4)CC3)c(F)c2)C(=O)O1	8

[P] CC(=O)NC[C@H]1CN(c2ccc(N3CCN(C(=O)/C=C/c4ccc([N+](=O)[O-])cc4)CC3)c(F)c2)C(=O)O1
[Q] CSc1ccc(/C=C/C(=O)N2CCN(c3ccc(N4C[C@H](CNC(C)=O)OC4=O)cc3F)CC2)cc1
Which value of MIC is greater, the one for P or the one for Q ? # reply format: chosen label Q

[1] CC(=O)NC[C@H]1CN(c2ccc(N3CCN(C(=O)/C=C/c4ccccc4)CC3)c(F)c2)C(=O)O1
[2] C/C(S)=N/C[C@H]1CN(c2ccc(N3CCN(C(=O)/C=C/c4ccccc4)CC3)c(F)c2)C(=O)O1
Which value of MIC is greater, the one for 1 or the one for 2 ? # reply format: chosen label 1

----------
test system: Bacillus cereus; assay: Minimum inhibitory concentration against Bacillus cereus MTCC 430; assay type: functional
MEASUREMENT_KIND: MIC (µg/mL)

CC(=O)NC[C@H]1CN(c2ccc(N3CCN(C(=O)/C=C/c4ccccc4)CC3)c(F)c2)C(=O)O1	1
COc1ccc(/C=C/C(=O)N2CCN(c3ccc(N4C[C@H](CNC(C)=O)OC4=O)cc3F)CC2)cc1	2
CC(=O)NC[C@H]1CN(c2ccc(N3CCN(C(=O)/C=C/c4ccc(F)cc4)CC3)c(F)c2)C(=O)O1	4
CC(=O)NC[C@H]1CN(c2ccc(N3CCN(C(=O)/C=C/c4ccc(O)cc4)CC3)c(F)c2)C(=O)O1	0.5
C/C(S)=N/C[C@H]1CN(c2ccc(N3CCN(C(=O)/C=C/c4ccc(O)cc4)CC3)c(F)c2)C(=O)O1	0.25
C/C(S)=N/C[C@H]1CN(c2ccc(N3CCN(C(=O)/C=C/c4ccccc4)CC3)c(F)c2)C(=O)O1	0.5

[a] NC(=S)NC[C@H]1CN(c2ccc(N3CCN(C(=O)/C=C/c4ccccc4)CC3)c(F)c2)C(=O)O1
[b] CC(=O)NC[C@H]1CN(c2ccc(N3CCN(C(=O)/C=C/c4ccc(OC(=O)C(C)(C)C)cc4)CC3)c(F)c2)C(=O)O1
Parameter metric = MIC. Return the lower-valued option from a and b . # reply format: chosen label a
(a: 0.25 µg/mL, b: 16 µg/mL)
